Biological target: His6-TEV-PDGFRβ (557-1016) (Homo sapiens (Human), UniProt P09619)
Sequence (P09619 whole entry, looked up): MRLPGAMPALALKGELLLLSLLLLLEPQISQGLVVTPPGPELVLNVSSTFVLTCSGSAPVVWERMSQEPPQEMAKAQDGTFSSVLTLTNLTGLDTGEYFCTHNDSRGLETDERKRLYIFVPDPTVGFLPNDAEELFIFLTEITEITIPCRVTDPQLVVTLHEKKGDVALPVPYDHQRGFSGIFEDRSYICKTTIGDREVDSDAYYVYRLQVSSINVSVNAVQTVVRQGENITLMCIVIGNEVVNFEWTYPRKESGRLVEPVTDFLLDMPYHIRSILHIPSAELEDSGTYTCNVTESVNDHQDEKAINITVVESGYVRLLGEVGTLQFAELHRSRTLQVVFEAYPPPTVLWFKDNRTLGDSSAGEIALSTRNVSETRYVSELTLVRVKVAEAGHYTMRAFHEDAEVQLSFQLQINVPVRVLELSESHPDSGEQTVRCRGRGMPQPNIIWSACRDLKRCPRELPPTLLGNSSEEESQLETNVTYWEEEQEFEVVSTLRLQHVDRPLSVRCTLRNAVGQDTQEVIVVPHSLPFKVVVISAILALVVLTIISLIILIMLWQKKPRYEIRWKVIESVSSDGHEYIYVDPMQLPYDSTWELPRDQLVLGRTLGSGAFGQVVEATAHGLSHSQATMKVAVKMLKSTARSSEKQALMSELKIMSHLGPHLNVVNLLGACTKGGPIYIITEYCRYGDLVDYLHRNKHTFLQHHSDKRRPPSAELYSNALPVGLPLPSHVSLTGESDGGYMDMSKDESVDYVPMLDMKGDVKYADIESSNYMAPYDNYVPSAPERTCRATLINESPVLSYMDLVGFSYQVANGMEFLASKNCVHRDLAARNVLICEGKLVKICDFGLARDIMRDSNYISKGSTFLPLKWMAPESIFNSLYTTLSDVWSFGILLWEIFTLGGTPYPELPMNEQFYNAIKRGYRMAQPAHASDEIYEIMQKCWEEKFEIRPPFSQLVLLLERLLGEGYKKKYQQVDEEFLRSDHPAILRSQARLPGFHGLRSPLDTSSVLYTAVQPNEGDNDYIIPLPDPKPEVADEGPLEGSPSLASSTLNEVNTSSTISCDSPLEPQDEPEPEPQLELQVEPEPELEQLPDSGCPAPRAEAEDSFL
Test: PDGFRβ HTRF Assay
Type: biochemical
Details: 800 μM ATP, 0.5 μM TK-substrate biotin peptide, 30 min pre-incubation, 3 hours reaction; read-out: PDGFR HTRF IC50
Reported pIC50 values for the following compounds.
// pIC50 here means minus log10 of the molar concentration (mol/L)

Query string: Bench note: what pIC50 did `Cc1ncc(C(=O)NCCN2CCCC2(C)C)cc1Nc1nn(C)c2nc(Nc3ccnc(N4CCN(CCO)CC4)c3)ncc12` show?
Result string: 9.26

Query string: Bench note: what pIC50 did `COC1CN(CC(=O)Nc2cnc(C)c(Nc3nn(C)c4nc(Nc5cnn(C)c5)ncc34)c2)C1` show?
Result string: 9.31

Query string: Bench note: what pIC50 did `Cc1ncc(C(=O)NCCN2CCCC[C@H]2C)cc1Nc1nn(C)c2nc(Nc3cncnc3)ncc12` show?
Result string: 9.17

API: the following record is the query input.
Query string: Bench note: what pIC50 did `Cc1ncc(C(=O)NCCN2CCCC2(C)C)cc1Nc1nn(C)c2nc(Nc3cccnc3)ncc12` show?
Result string: 9.22
